Tested on: female rats of Slc: Wistar/ST series
experiment summary: Limiting test based on Acute Oral Toxicity Test (OECD TG423, Acute Toxic Class Method)
Assay type: in vivo, rat
assay context: single gavage dose 2,000 mg/kg weight of body, six animals per testing article, observed 14 days
Item-by-item account of Safeness (number of dead)
assay metric: Safeness (number of dead)

> print(dat)
                                   molecule  endpoint.result
1                     C=CC(=O)N(C)CCOC(C)=O                3
2                      C=CC(=O)N(C)CC(=O)OC                0
3  C=CC(=O)N(CC)CC [Comparative Example 1a, N,N-diethylacrylamide, reference compound]                6
4  C=CC(=O)N(C)CCOC [Comparative Example 2a, reference compound]                6
